# Test system: SNB-19 CNS
# test-details: NCI-60 one-dose screen, 48 h (100 = growth as untreated, 0 = no growth, -100 = all killed)
# test-conditions: 10 µM unless noted
Compounds without any hit were thinned out: in the full panel of roughly 83,000, 20% have a hit.
Please respond with label 1 when measured growth is strictly beneath 50%, and with label 0 in all other cases.

Use the examples below as a reference point.
- structure-smiles: "COCCn1cc(-c2csc(-c3c[nH]c4ccc(Br)cc34)n2)c2cccnc21"
  test-system: "SNB-19 CNS"
  label-class: "label 0"
- structure-smiles: "N#Cc1cncc(-c2ccc3ncnc(Nc4cccc(Cl)c4)c3c2)c1"
  test-system: "SNB-19 CNS"
  label-class: "label 0"
- structure-smiles: "O=C(N=Nc1c(O)[nH]c2ccccc12)Nc1ccc(F)cc1"
  test-system: "SNB-19 CNS"
  label-class: "label 0"
- structure-smiles: "CC/C=C\\C[C@H](O)C/C=C1/C(=O)C=C[C@@H]1C/C=C\\CCCC(=O)O"
  test-system: "SNB-19 CNS"
  label-class: "label 0"
- structure-smiles: "COc1cc(/C=C/C(=O)c2ccc(-n3cc(CN4CCN(c5cc6c(cc5F)c(=O)c(C(=O)O)cn6C5CC5)CC4)nn3)cc2)ccc1O"
  test-system: "SNB-19 CNS"
  label-class: "label 0"
- structure-smiles: "CCc1n(Cc2ccc3ccccc3n2)cc[n+]1Cc1ccc2ccccc2n1"
  test-system: "SNB-19 CNS"
  label-class: "label 1"

Does COc1ccc(C#Cc2ccc(=O)oc2-c2cc(OC)c(OC)c(OC)c2)cc1O have growth strictly under 50%?
label 0

Does CCN(CC)c1ccc(/C=N/NC(=O)Cc2ccc(Nc3ccnc(C(F)(F)F)c3)cc2)c(O)c1 have growth strictly under 50%?
label 1

Does CCCCNC(=O)c1cc([N+](=O)[O-])cc(C2CCCCC2)c1O have growth strictly under 50%?
label 1

###

# Test system: CAKI-1 renal
# test-details: NCI-60 one-dose screen, 48 h (100 = growth as untreated, 0 = no growth, -100 = all killed)
# test-conditions: 10 µM unless noted
The panel holds about 83,000 compounds, 20% with a hit somewhere; the sample as a whole holds those more often.
Criterion: growth meeting or surpassing 30%. Met: T. Not met: F.

- molecule: "O=C(/C=C/c1cccc(Cl)c1Cl)Nc1ncc(Cc2ccccc2Cl)s1"
  label-class: "T"
- molecule: "CC(=O)ON1CCCC(P(=O)(OCCSC(=O)C(C)(C)C)OCCSC(=O)C(C)(C)C)C1=O (stereo not given)"
  label-class: "F"
- molecule: "Oc1c(CN2CCC(N3CCCCC3)CC2)cc(Cc2cc(CN3CCC(N4CCCCC4)CC3)c(O)c3ncccc23)c2cccnc12"
  label-class: "F"
- molecule: "CCCCCN(CCCCC)CC(O)c1cc(C)c2ccc3cc(C(C)C)ccc3c2c1 (stereo not given)"
  label-class: "T"
- molecule: "COc1cc(C(=O)c2c(-c3ccccc3)oc3c(OC)cccc23)cc(OC)c1OC"
  label-class: "F"

Reported growth reaches at least 30% for O=C1/C(=C/c2ccc(O)c(O)c2)COc2ccc(-c3ccccc3)cc21 ?
F

Reported growth reaches at least 30% for CNCc1cccc2c1OCCOCCOCCNS(=O)(=O)c1ccc(cc1)-c1cnc(N)c(n1)C(=O)N2 ?
F

Reported growth reaches at least 30% for O=C(NC1CC(F)C1)c1cc2cccnc2n1-c1ccc(Cl)c(Cl)c1 (stereo not given) ?
T

Reported growth reaches at least 30% for O=C1Nc2ccccc2/C1=C\c1c[nH]c2ccc(Br)cc12 ?
T

The values you see were collected from PubChem BioAssay (NCI).
